The measurements presented in this section are drawn from paper PMC10509173.

molecular target: H+,K+-ATPase (Sus scrofa, UniProt P19156); assay: Dose-dependent inhibition of H+,K+-ATPase activity, membrane fractions
Sequence (P19156 2-1034 limits assumed): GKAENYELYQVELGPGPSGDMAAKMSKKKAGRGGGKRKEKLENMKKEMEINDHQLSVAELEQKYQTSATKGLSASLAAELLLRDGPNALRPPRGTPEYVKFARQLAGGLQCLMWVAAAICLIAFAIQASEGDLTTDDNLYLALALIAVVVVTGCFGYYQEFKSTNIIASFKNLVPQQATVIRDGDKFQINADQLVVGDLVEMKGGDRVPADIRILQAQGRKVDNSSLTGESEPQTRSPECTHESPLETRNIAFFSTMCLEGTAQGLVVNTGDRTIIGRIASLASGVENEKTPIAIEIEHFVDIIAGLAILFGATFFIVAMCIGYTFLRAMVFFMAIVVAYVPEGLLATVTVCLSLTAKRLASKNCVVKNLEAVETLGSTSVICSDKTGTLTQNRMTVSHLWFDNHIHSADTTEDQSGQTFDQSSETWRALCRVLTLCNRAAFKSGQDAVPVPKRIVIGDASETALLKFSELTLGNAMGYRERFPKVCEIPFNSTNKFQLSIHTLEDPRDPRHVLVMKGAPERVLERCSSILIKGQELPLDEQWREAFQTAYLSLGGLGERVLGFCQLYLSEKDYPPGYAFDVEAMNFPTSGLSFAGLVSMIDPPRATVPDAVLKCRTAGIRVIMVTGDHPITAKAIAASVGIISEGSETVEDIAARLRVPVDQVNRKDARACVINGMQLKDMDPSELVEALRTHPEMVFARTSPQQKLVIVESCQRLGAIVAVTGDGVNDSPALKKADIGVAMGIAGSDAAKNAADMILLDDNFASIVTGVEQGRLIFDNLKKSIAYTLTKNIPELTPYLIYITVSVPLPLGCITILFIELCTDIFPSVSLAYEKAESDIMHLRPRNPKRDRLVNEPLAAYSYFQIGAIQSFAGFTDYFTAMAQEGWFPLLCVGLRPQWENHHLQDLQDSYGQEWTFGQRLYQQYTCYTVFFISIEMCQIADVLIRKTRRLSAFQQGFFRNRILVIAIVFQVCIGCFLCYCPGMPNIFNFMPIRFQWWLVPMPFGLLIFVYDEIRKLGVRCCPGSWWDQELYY
Sequence (P18434 whole entry partner): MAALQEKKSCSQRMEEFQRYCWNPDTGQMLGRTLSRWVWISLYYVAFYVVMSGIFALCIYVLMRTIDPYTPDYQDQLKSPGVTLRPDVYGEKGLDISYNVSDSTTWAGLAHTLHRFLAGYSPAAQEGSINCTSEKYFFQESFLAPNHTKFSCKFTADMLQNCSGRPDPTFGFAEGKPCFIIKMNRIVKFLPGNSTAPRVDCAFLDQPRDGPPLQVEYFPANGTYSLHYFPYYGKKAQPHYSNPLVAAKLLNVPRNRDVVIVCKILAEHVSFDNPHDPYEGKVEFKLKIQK
measured_property: IC50 (µM)

[P] OCc1ccc(OCc2ccccc2OCc2ccccc2)cc1
[Q] CNCc1ccc(OCc2ccccc2OCc2ccc(Cl)cc2)cc1
[R] CNCC#CCn1ccc2cccc(C#Cc3cccc(Cl)c3)c21
[S] CNCc1ccc(OCc2c(Cl)cccc2OCc2ccccc2)cc1
Ask: Order these compounds (above) by their IC50, from the smallest value upward. The reply should contain the labels ordered as requested.
Result: Q, S, R, P
(Q: 0.28 µM, S: 3.52 µM, R: 89.4 µM, P: 292 µM)

====

molecular target: H+,K+-ATPase (Sus scrofa); assay: K+-dependent ATPase assay, double reciprocal plot and Ki estimation; format: biochemical, pig; parameters: H^+,K^+-ATPase-enriched membrane fractions were purified from pig stomach; from tissue; host or cells: pig stomach (gastric membrane fractions); conditions: K+-competitive inhibition; read-out: Ki
measured_property: pKi
By convention, pKi is the negative base-10 log of a molar concentration.

Ask: Name the recorded pKi for CNCc1ccc(OCc2ccccc2OCc2ccccc2)cc1 [DQ-06] .
Result: 7.03

====

biological target: H+,K+-ATPase (Sus scrofa, UniProt P19156); experiment: Dose-dependent inhibition of H+,K+-ATPase activity, membrane fractions
pIC50: −log10 of the molar value.
measured_property: pIC50

Field: example entries. Status: answers known.
> print(dat)
                            smiles.repr                              assay.target  measured.property  value.observed
1      NCc1ccc(OCc2ccccc2OCc2ccccc2)cc1  H+,K+-ATPase (Sus scrofa, UniProt P19156)              pIC50            5.81
2  CN(C)Cc1ccc(OCc2ccccc2OCc2ccccc2)cc1  H+,K+-ATPase (Sus scrofa, UniProt P19156)              pIC50            5.25

[A] CNCc1ccc(OCc2cc(Cl)ccc2OCc2ccc(Cl)cc2)c(Cl)c1
[B] CNCC#CCOCc1cc(Cl)ccc1-c1ccc(Cl)c(F)c1
Ask: Given the two records A and B , choose the one whose pIC50 value is lower. In your reply, give the label of the chosen option.
Result: B

[P] CNCC#CCOCc1cc(Cl)ccc1-c1ccc(Cl)cc1
[Q] CNCc1ccc(OCc2ccccc2OCc2ccccc2)cc1
Ask: Parameter check: reported pIC50 is higher for which label, P or Q ? In your reply, give the label of the chosen option.
Result: Q
(Q: 6.15, P: 4.40)

====

biological target: H+,K+-ATPase (Sus scrofa, UniProt P19156); experiment: Dose-dependent inhibition of H+,K+-ATPase activity, membrane fractions
measured_property: IC50

> print(dat)
                               compound                              assay.target  value.observed
1  CNCC#CCn1ccnc1NC(=O)c1ccccc1 [DQ-09]  H+,K+-ATPase (Sus scrofa, UniProt P19156)       > 2000 µM

Ask: Name the recorded IC50 for CNCC#CCn1ccc2cccc(C#Cc3ccc(C)cc3)c21 [DQ-15] .
Result: 49.5 µM

Ask: Name the recorded IC50 for CNCC#CCn1ccc2cccc(C#Cc3ccccc3)c21 [DQ-14] .
Result: > 120 µM
